Test: Stability of the powder in sealed aluminium foil bag, purity and titre by HPLC
Assay type: physicochemical
Conditions: protected from light, 12 months
compounds and their reported Purity after 12 months

| compound | Purity after 12 months |
| --- | --- |
| CN1c2c(nc(N)[nH]c2=O)NCC1CNc1ccc(C(=O)NC(CCC(=O)O)C(=O)O)cc1.NC1C(O)OC(CO)C(O)C1O.NC1C(O)OC(CO)C(O)C1O (mixture of isomers) [D-GLU 5-MTHF] | 99.0 |

Return Purity after 12 months (reported value) for this compound: CN1c2c(nc(N)[nH]c2=O)NCC1CNc1ccc(C(=O)NC(CCC(=O)O)C(=O)O)cc1.NC1C(O)OC(CO)C(O)C1O.NC1C(O)OC(CO)C(O)C1O [D-GLU (6S)-5-MTHF]
98.5

Answer with the recorded Purity after 12 months of N[C@H]1C(O)O[C@H](CO)[C@@H](O)[C@@H]1O.N[C@H]1C(O)O[C@H](CO)[C@@H](O)[C@@H]1O.Nc1nc2ncc(CNc3ccc(C(=O)N[C@@H](CCC(=O)O)C(=O)O)cc3)nc2c(=O)[nH]1 [D-GLU folate, D-glucosamine L-folate] only.
98.7

Dear colleague, please send me the reported Purity after 12 months for N[C@H]1C(O)O[C@H](CO)[C@H](O)[C@@H]1O.N[C@H]1C(O)O[C@H](CO)[C@H](O)[C@@H]1O.Nc1nc2ncc(CNc3ccc(C(=O)N[C@@H](CCC(=O)O)C(=O)O)cc3)nc2c(=O)[nH]1 [D-GAL folate, D-galactosamine L-folate] when you can.
98.7

Fill in Purity after 12 months for record CN1c2c(nc(N)[nH]c2=O)NCC1CNc1ccc(C(=O)NC(CCC(=O)O)C(=O)O)cc1.NC1C(O)OC(CO)C(O)C1O.NC1C(O)OC(CO)C(O)C1O (mixture of isomers) [D-GAL (6R,S)-5-MTHF]
98.7

* * *

Catalogue of molecules with associated Titre after 6 months
Test: Stability of the powder in sealed aluminium foil bag, purity and titre by HPLC
Format: physicochemical
Conditions: protected from light, 6 months
Numbers only here, please. The scale is %.

| molecule | Titre after 6 months, % |
| --- | --- |
| CN1c2c(nc(N)[nH]c2=O)NCC1CNc1ccc(C(=O)NC(CCC(=O)O)C(=O)O)cc1.NC1C(O)OC(CO)C(O)C1O.NC1C(O)OC(CO)C(O)C1O (mixture of isomers) [D-GAL (6R,S)-5-MTHF] | 55.2 |
| CN1c2c(nc(N)[nH]c2=O)NCC1CNc1ccc(C(=O)NC(CCC(=O)O)C(=O)O)cc1.NC1C(O)OC(CO)C(O)C1O.NC1C(O)OC(CO)C(O)C1O [D-GLU (6S)-5-MTHF] | 55.4 |
| N[C@H]1C(O)O[C@H](CO)[C@@H](O)[C@@H]1O.N[C@H]1C(O)O[C@H](CO)[C@@H](O)[C@@H]1O.Nc1nc2ncc(CNc3ccc(C(=O)N[C@@H](CCC(=O)O)C(=O)O)cc3)nc2c(=O)[nH]1 [D-GLU folate, D-glucosamine L-folate] | 54.3 |

Specify Titre after 6 months for N[C@H]1C(O)O[C@H](CO)[C@H](O)[C@@H]1O.N[C@H]1C(O)O[C@H](CO)[C@H](O)[C@@H]1O.Nc1nc2ncc(CNc3ccc(C(=O)N[C@@H](CCC(=O)O)C(=O)O)cc3)nc2c(=O)[nH]1 [D-GAL folate, D-galactosamine L-folate] and stop.
54.5

Return reported Titre after 6 months. Input molecule: CN1c2c(nc(N)[nH]c2=O)NCC1CNc1ccc(C(=O)NC(CCC(=O)O)C(=O)O)cc1.NC1C(O)OC(CO)C(O)C1O.NC1C(O)OC(CO)C(O)C1O (mixture of isomers) [D-GLU 5-MTHF]
55

* * *

Readings of Purity after 6 months for the listed molecules
Assay: Stability of the powder in sealed aluminium foil bag, purity and titre by HPLC
Assay type: physicochemical
Details: protected from light, 6 months
Lab note: record the figure alone, no unit after it.

| molecule | reported_property | value_observed |
| --- | --- | --- |
| CN1c2c(nc(N)[nH]c2=O)NCC1CNc1ccc(C(=O)NC(CCC(=O)O)C(=O)O)cc1.NC1C(O)OC(CO)C(O)C1O.NC1C(O)OC(CO)C(O)C1O (mixture of isomers) [D-GAL (6R,S)-5-MTHF] | Purity after 6 months | 98.9 |

Please examine the following record next.
Indicate its recorded Purity after 6 months; the molecule in question is CN1c2c(nc(N)[nH]c2=O)NCC1CNc1ccc(C(=O)NC(CCC(=O)O)C(=O)O)cc1.NC1C(O)OC(CO)C(O)C1O.NC1C(O)OC(CO)C(O)C1O (mixture of isomers) [D-GLU 5-MTHF]
98.9

* * *

Quick reference: Purity, starting values of the listed items.
Assay: Stability of the powder in sealed aluminium foil bag, purity and titre by HPLC
Format: physicochemical
Conditions: airtight container, protected from light, start
Form field (numeric): enter value without unit.

Report Purity, starting values, nothing else, for this molecule: CN1c2c(nc(N)[nH]c2=O)NCC1CNc1ccc(C(=O)NC(CCC(=O)O)C(=O)O)cc1.NC1C(O)OC(CO)C(O)C1O.NC1C(O)OC(CO)C(O)C1O (mixture of isomers) [D-GAL (6R,S)-5-MTHF]
99.1

In one line, give reported Purity, starting values of the entry N[C@H]1C(O)O[C@H](CO)[C@H](O)[C@@H]1O.N[C@H]1C(O)O[C@H](CO)[C@H](O)[C@@H]1O.Nc1nc2ncc(CNc3ccc(C(=O)N[C@@H](CCC(=O)O)C(=O)O)cc3)nc2c(=O)[nH]1 [D-GAL folate, D-galactosamine L-folate] .
99.2

Tell me its Purity, starting values given CN1c2c(nc(N)[nH]c2=O)NCC1CNc1ccc(C(=O)NC(CCC(=O)O)C(=O)O)cc1.NC1C(O)OC(CO)C(O)C1O.NC1C(O)OC(CO)C(O)C1O (mixture of isomers) [D-GLU 5-MTHF] as the entry.
99.1

Entry N[C@H]1C(O)O[C@H](CO)[C@@H](O)[C@@H]1O.N[C@H]1C(O)O[C@H](CO)[C@@H](O)[C@@H]1O.Nc1nc2ncc(CNc3ccc(C(=O)N[C@@H](CCC(=O)O)C(=O)O)cc3)nc2c(=O)[nH]1 [D-GLU folate, D-glucosamine L-folate] needs its Purity, starting values filled in; supply it.
99.1

Give recorded Purity, starting values. CN1c2c(nc(N)[nH]c2=O)NCC1CNc1ccc(C(=O)NC(CCC(=O)O)C(=O)O)cc1.NC1C(O)OC(CO)C(O)C1O.NC1C(O)OC(CO)C(O)C1O [D-GLU (6S)-5-MTHF]
99.3

* * *

Experiment: Stability of the powder in sealed aluminium foil bag, purity and titre by HPLC
Assay type: physicochemical
Conditions: HPLC titre of acid moiety, protected from light, start
Here, each record is paired with measured Titre, starting values data.
Use % as the unit, but write only the number.

Solved entries (count: 4):
| compound | unit_string | Titre, starting values |
| --- | --- | --- |
| N[C@H]1C(O)O[C@H](CO)[C@@H](O)[C@@H]1O.N[C@H]1C(O)O[C@H](CO)[C@@H](O)[C@@H]1O.Nc1nc2ncc(CNc3ccc(C(=O)N[C@@H](CCC(=O)O)C(=O)O)cc3)nc2c(=O)[nH]1 [D-GLU folate, D-glucosamine L-folate] | % | 54.6 |
| CN1c2c(nc(N)[nH]c2=O)NCC1CNc1ccc(C(=O)NC(CCC(=O)O)C(=O)O)cc1.NC1C(O)OC(CO)C(O)C1O.NC1C(O)OC(CO)C(O)C1O (mixture of isomers) [D-GAL (6R,S)-5-MTHF] | % | 55.5 |
| CN1c2c(nc(N)[nH]c2=O)NCC1CNc1ccc(C(=O)NC(CCC(=O)O)C(=O)O)cc1.NC1C(O)OC(CO)C(O)C1O.NC1C(O)OC(CO)C(O)C1O (mixture of isomers) [D-GLU 5-MTHF] | % | 55.2 |
| N[C@H]1C(O)O[C@H](CO)[C@H](O)[C@@H]1O.N[C@H]1C(O)O[C@H](CO)[C@H](O)[C@@H]1O.Nc1nc2ncc(CNc3ccc(C(=O)N[C@@H](CCC(=O)O)C(=O)O)cc3)nc2c(=O)[nH]1 [D-GAL folate, D-galactosamine L-folate] | % | 54.8 |

With those in mind, consider the next compound.
For the compound CN1c2c(nc(N)[nH]c2=O)NCC1CNc1ccc(C(=O)NC(CCC(=O)O)C(=O)O)cc1.NC1C(O)OC(CO)C(O)C1O.NC1C(O)OC(CO)C(O)C1O [D-GLU (6S)-5-MTHF] , give its reported Titre, starting values.
55.7

* * *

Entries annotated with measured Titre after 12 months
Test: Stability of the powder in sealed aluminium foil bag, purity and titre by HPLC
Type: physicochemical
Conditions: protected from light, 12 months
Description: The stability of the compounds listed in the following table, under powder form and in sealed aluminium foil bag, was tested, keeping the samples in airtight container, protected from light and measuring the purity and the titre thereof after 6 and 12 months. In particular, the stability of the acid moiety was observed by HPLC, detecting the purity and titre thereof.
Give the value in % but do not write % after it.

Before answering, review these 4 worked examples.
| compound | value_observed |
| --- | --- |
| N[C@H]1C(O)O[C@H](CO)[C@@H](O)[C@@H]1O.N[C@H]1C(O)O[C@H](CO)[C@@H](O)[C@@H]1O.Nc1nc2ncc(CNc3ccc(C(=O)N[C@@H](CCC(=O)O)C(=O)O)cc3)nc2c(=O)[nH]1 [D-GLU folate, D-glucosamine L-folate] | 54 |
| CN1c2c(nc(N)[nH]c2=O)NCC1CNc1ccc(C(=O)NC(CCC(=O)O)C(=O)O)cc1.NC1C(O)OC(CO)C(O)C1O.NC1C(O)OC(CO)C(O)C1O (mixture of isomers) [D-GAL (6R,S)-5-MTHF] | 55.3 |
| CN1c2c(nc(N)[nH]c2=O)NCC1CNc1ccc(C(=O)NC(CCC(=O)O)C(=O)O)cc1.NC1C(O)OC(CO)C(O)C1O.NC1C(O)OC(CO)C(O)C1O (mixture of isomers) [D-GLU 5-MTHF] | 54.8 |
| N[C@H]1C(O)O[C@H](CO)[C@H](O)[C@@H]1O.N[C@H]1C(O)O[C@H](CO)[C@H](O)[C@@H]1O.Nc1nc2ncc(CNc3ccc(C(=O)N[C@@H](CCC(=O)O)C(=O)O)cc3)nc2c(=O)[nH]1 [D-GAL folate, D-galactosamine L-folate] | 54.2 |

// next entry
Specify measured Titre after 12 months for CN1c2c(nc(N)[nH]c2=O)NCC1CNc1ccc(C(=O)NC(CCC(=O)O)C(=O)O)cc1.NC1C(O)OC(CO)C(O)C1O.NC1C(O)OC(CO)C(O)C1O [D-GLU (6S)-5-MTHF] .
55.1
